assay-system: T1, ttPolX (Thermus thermophilus HB8, UniProt Q5SJ64 1-575)
T1 sequence: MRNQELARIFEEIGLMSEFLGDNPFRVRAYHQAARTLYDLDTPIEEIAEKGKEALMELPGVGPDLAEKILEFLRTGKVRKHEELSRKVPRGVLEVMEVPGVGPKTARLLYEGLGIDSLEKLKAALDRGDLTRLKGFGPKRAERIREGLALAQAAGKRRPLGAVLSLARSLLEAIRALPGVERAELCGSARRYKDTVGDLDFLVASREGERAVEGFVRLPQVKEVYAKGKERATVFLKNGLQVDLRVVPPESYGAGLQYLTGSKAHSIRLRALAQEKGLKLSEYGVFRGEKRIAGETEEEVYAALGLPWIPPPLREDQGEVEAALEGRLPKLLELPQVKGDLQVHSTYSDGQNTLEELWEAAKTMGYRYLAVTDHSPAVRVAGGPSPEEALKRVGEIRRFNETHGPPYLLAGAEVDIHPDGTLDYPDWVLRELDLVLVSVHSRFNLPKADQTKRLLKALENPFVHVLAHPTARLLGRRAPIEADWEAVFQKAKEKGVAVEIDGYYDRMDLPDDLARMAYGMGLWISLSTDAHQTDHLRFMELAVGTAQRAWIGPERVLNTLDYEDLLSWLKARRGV
assay-name: EMSA
quantity-name: Kd (nM)
One number for each entry, in nM.

Given item 21F/40T/18G 1-nt gapped DNA (dsDNA) DNA 1: CACTGGCGGTCGTTCTATCGGGTGTTGCTTTAGTTGTCAT DNA 2: ATGACAACTAAAGCAACACCC DNA 3: ATAGAACGACCGCCAGTG , the value recorded as its Kd is 390

Attribution: paper PMC2665239
